// data source = patent US4963588A

Assay: Acute toxicity in rat
Conditions: in vivo, ip, Rat (SD), second line, female, intraperitoneal
MEASURED_METRIC: LD50 (mg/kg)

STRUCTURE_AS_SMILES	MEASURED_METRIC	VALUE_OBSERVED
CC(C)C[C@H](NC(=O)[C@@H](O)[C@H](N)Cc1ccccc1)C(=O)O	LD50	780

----------
Assay: Acute toxicity in rat
Conditions: in vivo, sc, Rat (SD), first line, sex female, subcutaneous

STRUCTURE_AS_SMILES	UNITS_SYMBOL	LD50
CC(C)C[C@H](NC(=O)[C@@H](O)[C@H](N)Cc1ccccc1)C(=O)O	mg/kg	1900
